target: hAT1R (Homo sapiens); experiment: FLIPR calcium flux assay, Part I: agonist activity; format: cell-based; conditions: ChanTest hAT1R stable cells; % MPE, percent of the maximal possible effect; read-out: hAT1R Agonist Efficacy Agonist (%) Ave
Residues, ends and D or L forms follow the SMILES beside them.
Emax listing for selected compounds.
Unit % implied. Number only.

Incoming: Please report the measured Emax for CNCC(=O)N[C@@H](CCCNC(=N)N)C(=O)N[C@H](C(=O)N[C@@H](Cc1ccc(O)cc1)C(=O)N[C@H](C(=O)N[C@@H](Cc1c[nH]cn1)C(=O)N1CCC[C@H]1C(=O)N[C@H](Cc1ccccc1Br)C(=O)O)C(C)C)C(C)C [Compound 11] (HELM PEPTIDE1{[Sar].R.V.Y.V.H.P.[O=C(O)[C@@H](Cc1ccccc1Br)N[*:1]]}$$$$V2.0) tested on hAT1R (Homo sapiens).
Outgoing: 4

// moving on: another record for Emax
Incoming: Please report the measured Emax for CNCC(=O)N[C@@H](CCCNC(=N)N)C(=O)N[C@H](C(=O)N[C@@H](Cc1ccc(O)cc1)C(=O)N[C@H](C(=O)N[C@@H](Cc1c[nH]cn1)C(=O)N1CCC[C@H]1C(=O)N[C@H](Cc1csc2ccccc12)C(=O)O)C1CCCCC1)C(C)C [Compound 35] (HELM PEPTIDE1{[Sar].R.V.Y.[O=C([C@@H](N[*:1])C1CCCCC1)[*:2]].H.P.[O=C(O)[C@@H](Cc1csc2ccccc12)N[*:1]]}$$$$V2.0) tested on hAT1R (Homo sapiens).
Outgoing: 6

----------
Emax listing for selected compounds.
Target: hAT1R (Homo sapiens)
Sequence (P30556 1-359): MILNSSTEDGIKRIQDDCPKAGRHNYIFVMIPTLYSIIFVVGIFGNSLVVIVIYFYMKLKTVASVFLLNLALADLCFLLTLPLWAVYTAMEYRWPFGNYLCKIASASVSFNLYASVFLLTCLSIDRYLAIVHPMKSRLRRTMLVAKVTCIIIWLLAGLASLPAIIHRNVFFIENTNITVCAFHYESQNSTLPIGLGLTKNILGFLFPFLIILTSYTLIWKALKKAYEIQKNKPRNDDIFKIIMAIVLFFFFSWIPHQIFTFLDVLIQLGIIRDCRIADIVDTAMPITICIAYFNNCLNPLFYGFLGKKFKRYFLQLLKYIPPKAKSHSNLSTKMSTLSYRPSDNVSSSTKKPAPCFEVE
Experiment: FLIPR calcium flux assay, Part II: antagonist activity against Angiotensin II; note: Angiotensin II 10 nM final concentration
Assay type: cell-based
Details: read-out: hAT1R Antagonist Efficacy Antag (%) Ave
Starred links: 1 amine or outer side, 2 acyl side, 3 side chain; linkers in the order of their positions; H or OH if unused. Non-standard residues stand in square brackets, D forms with d. Residues, ends and D or L forms follow the SMILES beside them. X1 = O=C(CN(C[C@H](O)[C@@H](O)[C@H](O)[C@H](O)CO)[*:1])[*:2]; dPhe(2-Ph) = N[C@H](Cc1ccccc1-c1ccccc1)C(=O)O; Chg = N[C@H](C(=O)O)C1CCCCC1
Please answer in the form of a number followed by its unit of measurement.

Below, each entry is followed by its recorded Emax result.
Incoming: Input CC(C)[C@H](NC(=O)[C@H](CCCNC(=N)N)NC(=O)CNC[C@H](O)[C@@H](O)[C@H](O)[C@H](O)CO)C(=O)N[C@@H](Cc1ccc(O)cc1)C(=O)N[C@H](C(=O)N[C@@H](Cc1c[nH]cn1)C(=O)N1CCC[C@H]1C(=O)N[C@H](Cc1ccccc1-c1ccccc1)C(=O)O)C1CCCCC1 [Compound 42] (H-[X1]RVY[Chg]HP[dPhe(2-Ph)]-OH) , output reported Emax.
Outgoing: 101%

Incoming: Input CNCC(=O)N[C@@H](CCCNC(=N)N)C(=O)N[C@H](C(=O)N[C@@H](Cc1ccc(O)cc1)C(=O)N[C@H](C(=O)N[C@@H](Cc1c[nH]cn1)C(=O)N1CCC[C@H]1C(=O)N[C@H](Cc1c(C)cccc1C)C(=O)O)C(C)C)C(C)C [Compound 8] (HELM PEPTIDE1{[Sar].R.V.Y.V.H.P.[Cc1cccc(C)c1C[C@@H](N[*:1])C(=O)O]}$$$$V2.0) , output reported Emax.
Outgoing: 101%

// moving on: another record for Emax
Incoming: Input CNCC(=O)N[C@@H](CCCNC(=N)N)C(=O)N[C@H](C(=O)N[C@@H](Cc1ccc(O)cc1)C(=O)N[C@H](C(=O)N[C@@H](Cc1c[nH]cn1)C(=O)N1CCC[C@H]1C(=O)N[C@H](Cc1ccccc1C)C(=O)O)C1CCCCC1)C(C)C [Compound 27] (HELM PEPTIDE1{[Sar].R.V.Y.[O=C([C@@H](N[*:1])C1CCCCC1)[*:2]].H.P.[Cc1ccccc1C[C@@H](N[*:1])C(=O)O]}$$$$V2.0) , output reported Emax.
Outgoing: 100%
